System: SF-539
test_protocol: NCI tumour cell line growth inhibition, 48 h
Active and inactive are the calls of the source. Rule as the data show it: active = GI50 up to about 1.1 µM and inactive = higher.
measurement_label: GI50

- COc1ccc(N2C(=O)CS(=O)(=O)C2c2cccc(Oc3ccccc3)c2)cc1 (centres undefined): 3.54 µM (inactive)
- CC(=O)N[C@@H](Cc1ccc(O)cn1)C(=O)NCc1ccc(Cl)cc1: > 100 µM (inactive)
- C=C1CN2CCc3c([nH]c4ccccc34)C2CC1CC(=O)N(C)C (centres undefined): > 309 µM (inactive)
- CC(=O)c1ccc(N2CCN(C3=C(Cl)C(=O)c4c(O)ccc(O)c4C3=O)CC2)cc1: 13.8 µM (inactive)
- CCCc1c(OC)c(=O)c2c(O)cc(OC)c3c4c(OC)cc(O)c5c(=O)c(OC)c(CCC)c(c1c23)c54: 1.49 µM (inactive)
- CCCCCCCCCCCCCC1CCC(CC)N1 (centres undefined): 17.6 µM (inactive)
- CN(C(=S)Cc1ccc(Cl)c(Cl)c1)C1CCCC[C@@H]1N1CCCC1 (some centres undefined): 55.7 µM (inactive)
- COC(=O)c1c(O)ccc2c1c1c(n2CCc2ccc(OC)c(OC)c2)C(=O)c2ccccc2C1=O: 14.4 µM (inactive)
- CN1CCc2cc3c4cc2C1Cc1ccc(cc1)Oc1cc(ccc1O)CC1c2c(cc(O)c(c2O4)O3)CCN1C (centres undefined): 1.67 µM (inactive)
- Cc1c2cccc-2c(OCCO)cc2c3ccccc3n(C)c12: 2.54 µM (inactive)
- COc1cc2nc(-c3cccs3)nc(Nc3cccc([N+](=O)[O-])c3)c2cc1OC: 18.2 µM (inactive)
- N#CCCN(CCCN(C(=O)Nc1ccc(NC(=O)N(CCCN(CCC#N)C(N)=O)c2ccccc2)cc1)c1ccccc1)C(N)=O: > 100 µM (inactive)
- COc1cc(C(CN)N(C)C)cc(OC)c1OC (centres undefined): > 100 µM (inactive)
- COc1ccc2nccc(/C=C/c3ccc(N(C)C)cc3)c2c1: > 10 µM (inactive)
